src = patent US20260242478A1

- Target: T1, Anti-PSMA Fab (SEQ ID NOs: 19, 20)
- T1 construct: Biotinylated Fab captured on neutravidin coated plates in the phage ELISA; also called 006 PSMA Fab
- Assay protocol: phage ELISA; PSMA Fab on plate pre-incubated with PSMA antigen as competitor, anti-M13 HRP
Quantity name: Phage binding ELISA, Anti-PSMA Fab signal in the presence of PSMA

Binder	Experimental value
EMIWCRPAWMCEGI (Clonal phage of the peptide-180 library) [Phage-2118]	0.0702
ILKACIPDWMCEGS (Clonal phage of the peptide-180 library) [Phage-2124]	0.0604
EIHLCKPPWMCDWL (Clonal phage of the peptide-180 library) [Phage-2120]	0.109
AEKWCIPPWMCEWV (Clonal phage of the peptide-180 library) [Phage-2121]	0.105
DGLLCRPLWMCQFL (Clonal phage of the peptide-180 library) [Phage-2128]	0.0771
LVKWCTPPWMCESQ (Clonal phage of the peptide-180 library) [Phage-2130]	0.0701
EIKWCRPGWMCKVR (Clonal phage of the peptide-180 library) [Phage-2123]	0.0583
SDKWCIPPWMCEVA (Clonal phage of the peptide-180 library) [Phage-2126]	0.0724
